molecular target: Tyrosine-protein kinase SYK (Homo sapiens) (UniProt P43405); assay: Inhibition of SYK (unknown origin) at 500 nM
Hi, to clarify the labels: fulfilled covers inhibition from 7% upward, not fulfilled covers anything below 7%.

COc1cc(CO)ccc1-c1cc2c(Nc3ccc(F)c(Cl)c3)ncnc2s1 fulfilled
C[C@@H](Nc1ncnc2sc(-c3ccccc3C(N)=O)cc12)c1ccccc1 not fulfilled
C#Cc1cccc(Nc2ncnc3sc(-c4ccc(CO)cc4OC)cc23)c1 fulfilled

Consider the record given below.
Q: Decide: is the reported value of inhibition for "COc1cc(CO)ccc1-c1cc2c(N[C@H](C)c3ccccc3)ncnc2s1" equal to or greater than 7%?
Ans: fulfilled

* * *

target: Vascular endothelial growth factor receptor 2 (Homo sapiens); assay: Inhibition of KDR (unknown origin) at 500 nM
Hi, to clarify the labels: Yes covers inhibition from 10% upward, No covers anything below 10%.

Here are 3 compounds together with their reported answers.
COc1cc(CO)ccc1-c1cc2c(Nc3ccc(F)c(Cl)c3)ncnc2s1 No
COc1cc(C(N)=O)ccc1-c1cc2c(N[C@H](CO)c3ccccc3)ncnc2s1 No
COc1cc(CO)ccc1-c1cc2c(N[C@H](C)c3ccccc3)ncnc2s1 Yes

Q: Decide: is the reported value of inhibition for "C[C@@H](Nc1ncnc2sc(-c3ccc(C(=O)NCCN(C)C)cc3)cc12)c1ccccc1" equal to or greater than 10%?
Ans: No

Q: Decide: is the reported value of inhibition for "C[C@@H](Nc1ncnc2sc(-c3ccccc3C(N)=O)cc12)c1ccccc1" equal to or greater than 10%?
Ans: No

Q: Decide: is the reported value of inhibition for "C#Cc1cccc(Nc2ncnc3sc(-c4ccc(CO)cc4OC)cc23)c1" equal to or greater than 10%?
Ans: No

Q: Decide: is the reported value of inhibition for "COc1cc(CO)ccc1-c1cc2c(N[C@H](CO)c3ccccc3)ncnc2s1" equal to or greater than 10%?
Ans: Yes

* * *

Here the recorded inhibition is given for each entry.
target: Tyrosine-protein kinase CSK (Homo sapiens) (UniProt P41240); assay: Inhibition of CSK (unknown origin) at 500 nM
Sequence (P41240 2-450 limits assumed): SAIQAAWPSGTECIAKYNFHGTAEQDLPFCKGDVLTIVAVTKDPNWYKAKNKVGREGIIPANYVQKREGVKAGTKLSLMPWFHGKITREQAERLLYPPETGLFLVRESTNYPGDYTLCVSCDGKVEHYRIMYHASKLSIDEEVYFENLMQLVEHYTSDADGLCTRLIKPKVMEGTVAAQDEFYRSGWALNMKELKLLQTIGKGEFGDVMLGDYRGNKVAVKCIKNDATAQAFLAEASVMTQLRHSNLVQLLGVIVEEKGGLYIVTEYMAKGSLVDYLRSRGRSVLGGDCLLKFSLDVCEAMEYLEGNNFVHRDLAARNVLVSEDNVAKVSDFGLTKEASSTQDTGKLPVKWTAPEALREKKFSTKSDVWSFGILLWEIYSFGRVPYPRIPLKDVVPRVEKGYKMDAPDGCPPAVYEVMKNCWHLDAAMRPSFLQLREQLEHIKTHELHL
Answer with a number only, understood to be in %.

COc1cc(CO)ccc1-c1cc2c(Nc3ccc(F)c(Cl)c3)ncnc2s1 15
COc1cc(CO)ccc1-c1cc2c(N[C@H](C)c3ccccc3)ncnc2s1 7
COc1ccc(C(=O)NCCN(C)C)cc1-c1cc2c(N[C@H](C)c3ccccc3)ncnc2s1 3
COc1cc(CO)ccc1-c1cc2c(N[C@H](CO)c3ccccc3)ncnc2s1 5
COc1cc(CO)ccc1-c1cc2c(Nc3ccccc3)ncnc2s1 18

The observed inhibition for "C#Cc1cccc(Nc2ncnc3cc(OCCOC)c(OCCOC)cc23)c1" when tested with Tyrosine-protein kinase CSK (Homo sapiens) (UniProt P41240) stands at 8

* * *

test: Toxicity in zebrafish embryo assessed as survival for 3.5 days; format: organism-based, Danio rerio; conditions: in vivo
Here the recorded LC50 at 84 h is given for each entry.

The measured LC50 at 84 h associated with "COc1cccc(OC)c1-c1cc2c(N[C@H](CO)c3ccccc3)ncnc2s1" reads 18 µM

The measured LC50 at 84 h associated with "COc1cc(C(=O)NCCN(C)C)cc(OC)c1-c1cc2c(N[C@H](C)c3ccccc3)ncnc2s1" reads 15 µM

The measured LC50 at 84 h associated with "COc1cc(CO)ccc1-c1cc2c(N[C@H](CO)c3ccccc3)ncnc2s1" reads > 100 µM

The measured LC50 at 84 h associated with "COc1cc(C(N)=O)ccc1-c1cc2c(N[C@H](CO)c3ccccc3)ncnc2s1" reads > 100 µM
